Molecular target: Bug27 (Bordetella pertussis, UniProt Q7W019)
Sequence (Q7W019 30-330): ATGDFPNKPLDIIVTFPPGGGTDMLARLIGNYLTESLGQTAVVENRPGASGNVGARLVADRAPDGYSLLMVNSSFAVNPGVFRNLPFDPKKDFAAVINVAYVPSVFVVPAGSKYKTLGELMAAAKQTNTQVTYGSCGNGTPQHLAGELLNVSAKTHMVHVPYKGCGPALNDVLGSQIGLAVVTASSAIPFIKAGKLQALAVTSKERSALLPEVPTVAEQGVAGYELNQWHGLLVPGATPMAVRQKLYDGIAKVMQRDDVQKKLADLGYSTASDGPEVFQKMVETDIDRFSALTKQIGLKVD
pKd: −log10 of the molar value.
MEASURED QUANTITY: pKd

compound="O=C(O)c1cccnc1C(=O)O [quinolinate]" measured_quantity=pKd experimental_result=6.87
